Cited source: paper PMC5700166

Study Target: GST-Nv-NF-kB (Cys allele) (Nematostella vectensis, UniProt E5G601 2-411)
Sequence: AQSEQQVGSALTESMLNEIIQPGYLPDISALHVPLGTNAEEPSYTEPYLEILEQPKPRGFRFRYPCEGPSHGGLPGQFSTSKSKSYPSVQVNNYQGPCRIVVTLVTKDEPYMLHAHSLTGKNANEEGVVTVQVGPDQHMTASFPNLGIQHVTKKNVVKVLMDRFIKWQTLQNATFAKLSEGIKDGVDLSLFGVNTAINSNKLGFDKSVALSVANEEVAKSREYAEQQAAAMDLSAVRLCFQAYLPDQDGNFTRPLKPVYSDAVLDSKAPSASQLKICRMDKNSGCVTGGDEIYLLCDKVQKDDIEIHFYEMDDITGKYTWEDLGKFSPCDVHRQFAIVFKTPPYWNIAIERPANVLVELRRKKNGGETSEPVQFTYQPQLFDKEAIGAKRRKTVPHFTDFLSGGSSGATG
Assay Name: protein-binding microarray (PBM); PBM: ~300 nM protein, 6 mM HEPES pH 7.8, 80 mM KCl, 0.5 mM EDTA, 0.5 mM EGTA, 6% glycerol, 35 ng/ul poly-dIdC, 1% milk, 1 h, room temperature; Ap Aiptasia and Nv Nematostella (sea anemones) / Co Capsaspora / Aq Amphimedon (sponge) / Dm Drosophila / Hu human; RHD is the Rel homology domain; high values mean tight binding
Measurement Conditions: dsDNA, one strand shown
sequences and their reported binding signal
Answer in z-score, number only, no unit symbol.

The examples below pair each entry with its known result.
In [3]: df
Out[3]:
                                 seq_string                              study_target  result
0  CCGATTAACATCAGAAATTACCATGATGTTAATCGGGTCTTGATTCGCTTGACGCTGCTG  GST-Nv-NF-kB (Cys allele) (Nematostella vectensis, UniProt E5G601 2-411)    1.45
1  CCGATTAACATCAGGGAATTATATGATGTTAATCGGGTCTTGATTCGCTTGACGCTGCTG  GST-Nv-NF-kB (Cys allele) (Nematostella vectensis, UniProt E5G601 2-411)    6.68
2  CCGATTAACATCAGTGTCCCGTTTGATGTTAATCGGGTCTTGATTCGCTTGACGCTGCTG  GST-Nv-NF-kB (Cys allele) (Nematostella vectensis, UniProt E5G601 2-411)    2.18
3  CCGATTAACATCAAAATCCCCCCTGATGTTAATCGGGTCTTGATTCGCTTGACGCTGCTG  GST-Nv-NF-kB (Cys allele) (Nematostella vectensis, UniProt E5G601 2-411)    9.21
4  CCGATTAACATCAAATCTTCCCCTGATGTTAATCGGGTCTTGATTCGCTTGACGCTGCTG  GST-Nv-NF-kB (Cys allele) (Nematostella vectensis, UniProt E5G601 2-411)    8.14
5  CCGATTAACATCACCGAACCCCCTGATGTTAATCGGGTCTTGATTCGCTTGACGCTGCTG  GST-Nv-NF-kB (Cys allele) (Nematostella vectensis, UniProt E5G601 2-411)    3.55
6  CCGATTAACATCAGGGATACCCCTGATGTTAATCGGGTCTTGATTCGCTTGACGCTGCTG  GST-Nv-NF-kB (Cys allele) (Nematostella vectensis, UniProt E5G601 2-411)    5.69
7  CCGATTAACATCACGGGGGAAACTGATGTTAATCGGGTCTTGATTCGCTTGACGCTGCTG  GST-Nv-NF-kB (Cys allele) (Nematostella vectensis, UniProt E5G601 2-411)    5.82

# evaluate next
Task: # get_value(readout= binding signal, system= GST-Nv-NF-kB (Cys allele) (Nematostella vectensis, UniProt E5G601 2-411)) for CCGATTAACATCAGGGGTATACCTGATGTTAATCGGGTCTTGATTCGCTTGACGCTGCTG
Output: 2.43
